Read-out: TIMP metallopeptidase inhibitor 2 (TIMP2), TIMP2 (gene 7077)
Experiment: BSK_KF3CT_TIMP2: BioMAP Diversity Plus: KF3CT Assay for TIMP metallopeptidase inhibitor 2 (TIMP2) Biomarker Activity (AID 2283071)
Details: primary human keratinocytes with fibroblasts; actives raise or lower the signal
Active and inactive are the calls of the source. How the source made its calls: active means hit-call score of the fitted dose curve at least 0.9, where 1 is the maximum; inactive means score below 0.9.
Possible outcomes: active, inactive

Molecular String	Group
O=C(O)COc1nc(Cl)c(Cl)cc1Cl	inactive
CCOP(=S)(OCC)SCn1c(=O)oc2cc(Cl)ccc21	inactive
CCOc1cc(Oc2ccc(C(F)(F)F)cc2Cl)ccc1[N+](=O)[O-]	inactive
C=CCC1=C(C)[C@@H](OC(=O)[C@@H]2[C@@H](C=C(C)C)C2(C)C)CC1=O	inactive
CCc1nn(C)c(C(=O)NCc2ccc(C(C)(C)C)cc2)c1Cl	active
N#Cc1cc(Br)c(O)c(Br)c1	inactive
